experiment: Clearance in ICR mouse plasma at 2 mg/kg, iv administered as single dose by LC/MS/MS analysis; type: ADME, organism-based
READOUT: clearance (mL/min/kg)
Give just the numeric value; mL/min/kg need not be written.

**Q:** Suppose we examine the compound `CCN(CC(=O)O)CC(=O)N1CCC[C@H]1c1cc(C(=O)Nc2ncc(F)s2)c(C)s1` ; what clearance value has been reported?
**A:** 3.88

----------
experiment: Ratio of AUC (0 to 1.5 hrs) in C57BL/6J mouse pancreas to plasma at 100 mg/kg, po administered as single dose by LC/MS/MS analysis; format: ADME, organism-based; details: pancreas and plasma, read-out: Ratio AUC
READOUT: Kp
Reply with just the number.

**Q:** Record request: Kp value, item `CCN(CC(=O)O)CC(=O)N1CCC[C@H]1c1cc(C(=O)Nc2ncc(F)s2)c(C)s1`
**A:** 0.12
